Test system: HOP-92 NSCLC
Test: NCI tumour cell line growth inhibition, 48 h
Where a SMILES comes first, the peptide text is derived from it. The star is where a group is joined. ONb = O=[N+]([O-])c1ccc(CO*)cc1; Boc = CC(C)(C)OC(=O)*
Each record here notes measured TGI.

{"columns": ["molecule", "TGI"],
 "data": [
  ["O=C(O)c1cn2c3c(cc(N4CCN(CCO)CC4)cc3c1=O)SCC2", "> 100 µM"],
  ["O=S(=O)(O)ON=C1c2ccccc2-c2ccccc21", "> 100 µM"],
  ["COc1ccc(-c2nc3ccccn3c2/C=C/C(=O)c2cc(OC)c(OC)c(OC)c2)cc1", "51.4 µM"],
  ["Cc1cc(N(CCNc2ccnc3cc(Cl)ccc23)Cc2ccco2)nc(Cl)n1", "2.94 µM"],
  ["Cc1cc(C)nc(SC(C)C(=O)N/N=C/c2ccc(OCc3ccccc3)cc2)n1 (centres undefined)", "> 100 µM"],
  ["CC1C[C@@H]2C(=O)NC(=O)[C@@H]2c2c1c1ccccc1n2C (some centres undefined)", "> 100 µM"],
  ["CCOC(=O)Cc1nc2sc(S(N)(=O)=O)nn2c1Br", "41.1 µM"],
  ["CCc1cccc(C(C)C)c1N1C(=O)C(=O)C(c2nc3ccccc3s2)C(=O)C1=O", "> 50 µM"],
  ["CCN1CCN(c2nc3ccc([N+](=O)[O-])cc3nc2C(=O)c2ccccc2)CC1", "32.7 µM"],
  ["CC[C@@H](C(=O)[C@@H](C)[C@@H](O)[C@H](C)[C@@H]1O[C@@H]([C@@H](CC)C(=O)N(CC)CC)CC[C@@H]1C)C1O[C@]2(C=CC(=O)[C@]3(CC[C@@](C)([C@H]4CC[C@](O)(CC)[C@H](C)O4)O3)O2)[C@H](C)C[C@@H]1C (some centres undefined)", "4.6 µM"],
  ["C=C(Br)N(CC)CC", "> 100 µM"],
  ["Nc1nc(N)c2ncn(Cc3ccccc3CCl)c2n1", "> 100 µM"],
  ["CC(C)[Si](OC1=CCC[C@H]2NC(=O)[C@@H](Cc3ccccc3)[C@@]12C)(C(C)C)C(C)C", "6.67 µM"],
  ["CCCCCCCCCCCCCC[n+]1ccc2c(C)c3c(c(C)c2c1)c1cc(O)ccc1n3CC", "1.32 µM"],
  ["COC(=O)CCC(=O)CC(=O)C(=O)Nc1c(Cl)cc([N+](=O)[O-])cc1Cl", "> 100 µM"],
  ["CCn1cc(C(=O)O)c(=O)c2cc3c(cc21)S(=O)(=O)CC3", "> 100 µM"],
  ["CC(=O)c1ccc(NC(=O)C(=O)Nn2c(=S)[nH]c3ccccc3c2=O)cc1", "> 100 µM"],
  ["CC(C)CC(NC(=O)OC(C)(C)C)C(=O)NC(CCC(=O)OCc1ccc([N+](=O)[O-])cc1)C(=O)OCc1ccc([N+](=O)[O-])cc1 (stereo not drawn) (Boc-Leu-Glu(ONb)-ONb; configuration not given here)", "> 100 µM"],
  ["CC1C2CC(C(S(=O)(=O)N3CCOCC3)/C2=N\\O)C1(C)C (centres undefined)", "> 100 µM"]
]}

Origin of measurements: PubChem BioAssay (NCI)
